biological target: mixture of the human placental hexosaminidases HexA/HexB; assay: Steady state kinetics of hexosaminidases A and B with 4MU-GlcNAc; format: biochemical; conditions: HexA/HexB mixture; read-out: Ki values (in M) a) hexosaminidases
PARAMETER: pKi
Convention used: pKi is expressed as -log10 of the molar concentration.

Request the reported pKi associated with CC(C)C(=O)NC1c2nc(CCc3ccccc3)cn2C(CO)[C@@H](O)C1O (stereo partly shown) 6.30

* * *

biological target: bacterial O-GlcNAcase (bOGA) (NagJ from Clostridium perfringens) (Clostridium perfringens, UniProt Q8XL08)
Sequence (Q8XL08 31-1001 limits assumed): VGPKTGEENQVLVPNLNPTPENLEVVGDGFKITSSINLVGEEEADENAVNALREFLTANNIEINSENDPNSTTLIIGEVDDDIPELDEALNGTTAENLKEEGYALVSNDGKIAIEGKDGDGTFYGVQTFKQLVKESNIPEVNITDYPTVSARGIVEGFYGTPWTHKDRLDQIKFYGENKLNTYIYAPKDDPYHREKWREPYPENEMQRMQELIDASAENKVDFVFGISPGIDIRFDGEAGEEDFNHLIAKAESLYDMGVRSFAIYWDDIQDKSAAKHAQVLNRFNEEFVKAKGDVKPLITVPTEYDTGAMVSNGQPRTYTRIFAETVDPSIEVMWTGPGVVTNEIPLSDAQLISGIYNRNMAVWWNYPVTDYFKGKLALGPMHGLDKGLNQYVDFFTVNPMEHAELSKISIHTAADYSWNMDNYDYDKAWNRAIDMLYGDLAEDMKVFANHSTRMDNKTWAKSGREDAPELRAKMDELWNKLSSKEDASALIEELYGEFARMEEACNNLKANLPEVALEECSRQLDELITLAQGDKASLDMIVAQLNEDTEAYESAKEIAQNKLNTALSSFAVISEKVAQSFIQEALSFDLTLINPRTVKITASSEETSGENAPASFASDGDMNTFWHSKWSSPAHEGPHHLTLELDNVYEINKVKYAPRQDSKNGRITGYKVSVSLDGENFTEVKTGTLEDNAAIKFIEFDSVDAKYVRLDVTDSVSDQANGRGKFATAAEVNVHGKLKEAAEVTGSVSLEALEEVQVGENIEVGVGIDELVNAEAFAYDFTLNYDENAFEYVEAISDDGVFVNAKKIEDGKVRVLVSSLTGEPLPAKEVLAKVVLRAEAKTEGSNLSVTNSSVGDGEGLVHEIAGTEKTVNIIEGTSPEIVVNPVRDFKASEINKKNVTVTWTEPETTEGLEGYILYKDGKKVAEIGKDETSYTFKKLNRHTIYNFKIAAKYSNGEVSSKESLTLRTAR
Each entry below carries its reported pKi.
Convention used: pKi is expressed as -log10 of the molar concentration.

COC(=O)Cc1cn2c(n1)C(NC(C)=O)[C@@H](O)[C@H](O)C2CO (stereo partly shown) [V, reference compound] ... 11.52
CCC(=O)NC1c2nc(CCc3ccccc3)cn2C(CO)[C@@H](O)[C@@H]1O (stereo partly shown) [Compound IV] ... 10.96
CC(C)C(=O)NC1c2nc(CCc3ccccc3)cn2C(CO)[C@@H](O)C1O (stereo partly shown) [Compound II] ... 11.34

Request the reported pKi associated with CC(=O)NC1c2nc(CCc3ccccc3)cn2C(CO)[C@@H](O)[C@@H]1O (stereo partly shown) [Compound III] 11.11

* * *

Each entry below carries its reported Ratio a/b.
target: bacterial O-GlcNAcase (bOGA) (NagJ from Clostridium perfringens) (Clostridium perfringens); assay: biochemical; set-up: reference not given here
Respond using a number only.

CCC(=O)NC1c2nc(CCc3ccccc3)cn2C(CO)[C@@H](O)[C@@H]1O (stereo partly shown) [Compound IV] ... 440
CC(C)C(=O)NC1c2nc(CCc3ccccc3)cn2C(CO)[C@@H](O)C1O (stereo partly shown) [Compound II] ... 108000

Request the reported Ratio a/b associated with COC(=O)Cc1cn2c(n1)C(NC(C)=O)[C@@H](O)[C@H](O)C2CO (stereo partly shown) [V, reference compound] 2500

Request the reported Ratio a/b associated with CC(=O)NC1c2nc(CCc3ccccc3)cn2C(CO)[C@@H](O)[C@@H]1O (stereo partly shown) [Compound III] 256

* * *

molecular target: mixture of the human placental hexosaminidases HexA/HexB; assay: Steady state kinetics of hexosaminidases A and B with 4MU-GlcNAc; assay type: biochemical; conditions: placental hexosaminidases, 0-400 nM inhibitor, FIG. 3; read-out: Ki
PARAMETER: Ki (nM)
Report only the number, with the unit nM understood.

Request the reported Ki associated with CC(C)C(=O)NC1c2nc(CCc3ccccc3)cn2C(CO)[C@@H](O)C1O (stereo partly shown) [Compound II] 520
